EXPERIMENTAL_SYSTEM: Aurora-A (Mus musculus, UniProt P97477)
Sequence (P97477 1-395): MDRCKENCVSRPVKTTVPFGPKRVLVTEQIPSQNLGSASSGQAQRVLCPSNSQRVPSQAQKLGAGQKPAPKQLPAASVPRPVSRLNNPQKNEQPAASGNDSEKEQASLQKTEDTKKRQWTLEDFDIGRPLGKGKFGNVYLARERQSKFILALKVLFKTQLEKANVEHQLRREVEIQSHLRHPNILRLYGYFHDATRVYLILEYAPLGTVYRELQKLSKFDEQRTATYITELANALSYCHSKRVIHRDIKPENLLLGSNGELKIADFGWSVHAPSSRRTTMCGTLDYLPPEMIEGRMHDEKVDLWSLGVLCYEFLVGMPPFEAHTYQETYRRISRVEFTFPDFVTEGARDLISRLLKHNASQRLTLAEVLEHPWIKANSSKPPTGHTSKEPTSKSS
PROPERTY_LABEL: pIC50
Scale for pIC50: -log10 of concentration given in mol/L; no unit attached.

Any idea what its pIC50 is? The molecule is COc1cc2c(c(-c3cc4cc(OC)ccc4[nH]3)c1)C(=O)NC2
7.00

Param item: O=C1NCc2cccc(-c3cc4cc(O)ccc4[nH]3)c21
7.05

Param item: O=C1NCc2cccc(-c3ccc[nH]3)c21
6.47

Param item: COc1ccc2[nH]c(-c3cccc4c3C(=O)NC4)cc2c1
7.15

Param item: CC(C)(C)OC(=O)n1c(-c2cccc3c2C(=O)NC3)cc2cc(O)ccc21
5.03

Param item: O=C1NCc2cccc(-c3cc4cc(OCc5ccccc5)ccc4[nH]3)c21
4.67

Param item: COc1ccc2[nH]c(-c3cccc4c3C(=O)NC4)nc2c1
6.69

Param item: CCN1CCN(CCCOc2ccc3[nH]c(-c4cccc5c4C(=O)NC5)cc3c2)CC1
7.36

----------
EXPERIMENTAL_SYSTEM: VEGF-R2 kinase domain (Rattus norvegicus)
Construct: polyhistidine (N)
Sequence (O08775 786-1343): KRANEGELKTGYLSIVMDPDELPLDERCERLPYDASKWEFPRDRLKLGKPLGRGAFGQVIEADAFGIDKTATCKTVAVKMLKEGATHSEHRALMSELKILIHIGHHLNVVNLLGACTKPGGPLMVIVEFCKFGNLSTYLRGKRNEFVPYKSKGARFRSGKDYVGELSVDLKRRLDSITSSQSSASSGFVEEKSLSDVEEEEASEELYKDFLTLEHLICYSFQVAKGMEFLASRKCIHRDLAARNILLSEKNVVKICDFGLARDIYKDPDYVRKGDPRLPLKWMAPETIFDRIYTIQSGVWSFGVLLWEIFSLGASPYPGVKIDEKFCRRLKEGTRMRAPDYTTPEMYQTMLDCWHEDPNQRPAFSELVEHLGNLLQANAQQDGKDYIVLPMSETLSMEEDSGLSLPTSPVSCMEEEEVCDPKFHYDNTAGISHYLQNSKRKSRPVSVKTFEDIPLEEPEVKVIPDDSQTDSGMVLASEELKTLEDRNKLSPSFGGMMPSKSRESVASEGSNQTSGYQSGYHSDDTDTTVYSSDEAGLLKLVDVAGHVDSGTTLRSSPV
ASSAY_NOTES: VEGF-R2 screening assay (33P-ATP FlashPlate kinase assay)
Type: biochemical
CONDITION_CONTEXT: single test concentration 100 μM; read-out: VEGF-R2 percent inhibition
Use Y when the recorded inhibition at 100 µM is no lower than 60%; use N when it is lower.

Please tell me: is the compound CC(C)(C)OC(=O)n1cccc1-c1cccc2c1C(=O)NC2 at or over 60% in terms of inhibition at 100 µM?
N

Param item: COc1cc2c(c(-c3cc4cc(OC)ccc4n3C(=O)OC(C)(C)C)c1)C(=O)NC2
N

Param item: O=C1NCc2cccc(-c3c[nH]c4ccccc34)c21
N

Param item: CC(C)(C)OC(=O)n1c(-c2cccc3c2C(=O)NC3)cc2ccccc21
N

Param item: CC(C)(C)OC(=O)n1c(-c2cccc3c2C(=O)NC3)cc2cc(O)ccc21
Y

Param item: CN1Cc2cccc(-c3ccc[nH]3)c2C1=O
N

Param item: CC(C)(C)OC(=O)n1c(-c2cccc3c2C(=O)NC3)cc2cc(OCCN3CCCCC3)ccc21
Y

Param item: CC(C)(C)OC(=O)n1c(-c2cccc3c2C(=O)NC3)cc2cc(OCCN3CCOCC3)ccc21
Y

Param item: COc1ccc2c(c1)cc(-c1cccc3c1C(=O)NC3)n2C(=O)OC(C)(C)C
N

The reported numbers originate from patent US20070161648A1.
